For each entry below, report its AC50 value.
study system: UniProt:P07900
Assay type: functional, organism-based
Activity calls are given as the source filed them.

Previously resolved entries follow.
chem smiles	obs value
COc1ccc(O)c(-c2cc(-c3cccc(Br)c3)[nH]n2)c1	8.06 µM (active)
COc1ccc(C(=O)NC(=S)NNC(=O)c2cnccn2)cc1	2.71 µM (active)
COc1cc(/C=C/C(=O)c2ccc([N+](=O)[O-])o2)ccc1O	4.28 µM (active)
O=C(NN1C(=O)/C(=C\c2ccc(O)c([N+](=O)[O-])c2)SC1=S)c1ccccc1Cl	5.26 µM (active)

May I ask what AC50 has been recorded for "C=CCn1c(C)cc(C(=O)CSc2nnc(NCc3ccccc3)s2)c1C" ?
4.03 µM (active)

---

study system: UniProt:Q9Y5X4
Sequence (Q9Y5X4 whole entry): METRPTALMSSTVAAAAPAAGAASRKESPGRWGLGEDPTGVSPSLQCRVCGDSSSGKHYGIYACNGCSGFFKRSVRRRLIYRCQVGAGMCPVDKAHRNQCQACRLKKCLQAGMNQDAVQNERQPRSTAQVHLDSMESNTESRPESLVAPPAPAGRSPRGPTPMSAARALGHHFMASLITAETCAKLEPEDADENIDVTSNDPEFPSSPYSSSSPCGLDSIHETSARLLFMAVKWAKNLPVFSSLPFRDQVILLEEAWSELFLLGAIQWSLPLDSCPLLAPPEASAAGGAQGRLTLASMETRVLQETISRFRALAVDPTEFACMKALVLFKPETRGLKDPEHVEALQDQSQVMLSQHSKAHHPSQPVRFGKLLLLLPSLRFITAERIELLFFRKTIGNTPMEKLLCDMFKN
Format: functional
Calls of active or inactive are those of the source.
recorded metric: IC50

compound	IC50
COC(=O)Sc1nnc(-c2ccc(Br)cc2)o1	> 39.8 µM (not active)

Batch lookup, IC50 per entry.
1. COC(=O)CCCC[C@H]1SC[C@H]2NC(=O)N[C@]21O
2. COc1cc(Br)c(C(=O)c2nccc3cc(OC)c(OC)cc23)cc1OC
3. CCC(Sc1nc(O)c(C#N)c(-c2ccccc2)n1)C(=O)Nc1cc(C)on1 (centres undefined)

1: 0.389 µM (active); 2: > 39.8 µM (not active); 3: > 39.8 µM (not active)

---

study system: Genome polyprotein (dengue virus type 2)
Sequence (P29990 2492-3391 limits assumed): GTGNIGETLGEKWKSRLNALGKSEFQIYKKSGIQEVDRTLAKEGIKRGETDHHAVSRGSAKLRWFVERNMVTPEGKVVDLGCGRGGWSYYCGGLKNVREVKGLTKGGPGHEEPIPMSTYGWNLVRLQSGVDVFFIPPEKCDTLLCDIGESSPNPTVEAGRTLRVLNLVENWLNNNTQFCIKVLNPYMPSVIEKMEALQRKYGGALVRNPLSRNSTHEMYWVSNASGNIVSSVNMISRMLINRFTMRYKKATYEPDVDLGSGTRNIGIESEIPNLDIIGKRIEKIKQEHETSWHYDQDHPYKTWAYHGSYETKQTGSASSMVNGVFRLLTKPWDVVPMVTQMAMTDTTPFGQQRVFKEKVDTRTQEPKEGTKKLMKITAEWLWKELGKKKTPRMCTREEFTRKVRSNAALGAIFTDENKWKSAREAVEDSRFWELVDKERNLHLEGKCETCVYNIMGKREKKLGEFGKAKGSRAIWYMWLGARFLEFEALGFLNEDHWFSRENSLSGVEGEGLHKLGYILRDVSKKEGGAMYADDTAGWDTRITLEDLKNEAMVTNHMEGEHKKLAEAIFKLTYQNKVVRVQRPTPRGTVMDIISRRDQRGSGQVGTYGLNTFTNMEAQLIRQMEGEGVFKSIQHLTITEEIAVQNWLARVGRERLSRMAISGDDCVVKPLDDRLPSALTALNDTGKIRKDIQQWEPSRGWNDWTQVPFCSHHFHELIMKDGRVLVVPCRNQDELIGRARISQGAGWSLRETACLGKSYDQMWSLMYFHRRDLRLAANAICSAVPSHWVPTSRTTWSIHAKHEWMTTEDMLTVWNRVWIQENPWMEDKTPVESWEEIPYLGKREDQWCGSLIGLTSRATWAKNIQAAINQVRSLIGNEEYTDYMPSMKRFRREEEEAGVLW
measurement description: Dengue-2 NS5 methyltransferase inhibitors, primary screen, biochemical, confirmation dose response (AID 588689)
Assay type: functional
Active and inactive are the calls of the source.
Kindly supply the reported IC50 values for the records listed here.

Illustrative cases are given below, each with its answer.
compound	obs value
O=C(O)CN1C(=O)/C(=C\c2cccc(OCc3ccccc3)c2)SC1=S	42.2 µM (active)
CC(C)CSC1=NSC2=NC(=O)/C(=C\c3ccccc3)C(=N)N12	51.8 µM (active)
COc1ccccc1/C=C1\SC(=S)N(C(C(=O)O)c2ccccc2)C1=O (centres undefined)	39.1 µM (active)

In the following, a different compound is considered.
Param readout = IC50; param system = Genome polyprotein (dengue virus type 2); param query = "CCOc1cc(/C=C(/C#N)c2ccc(Cl)cc2)cc(Cl)c1OCC(=O)O" ; response: value
34.5 µM (active)

---

study system: UniProtKB P10635
Sequence (P10635 whole entry): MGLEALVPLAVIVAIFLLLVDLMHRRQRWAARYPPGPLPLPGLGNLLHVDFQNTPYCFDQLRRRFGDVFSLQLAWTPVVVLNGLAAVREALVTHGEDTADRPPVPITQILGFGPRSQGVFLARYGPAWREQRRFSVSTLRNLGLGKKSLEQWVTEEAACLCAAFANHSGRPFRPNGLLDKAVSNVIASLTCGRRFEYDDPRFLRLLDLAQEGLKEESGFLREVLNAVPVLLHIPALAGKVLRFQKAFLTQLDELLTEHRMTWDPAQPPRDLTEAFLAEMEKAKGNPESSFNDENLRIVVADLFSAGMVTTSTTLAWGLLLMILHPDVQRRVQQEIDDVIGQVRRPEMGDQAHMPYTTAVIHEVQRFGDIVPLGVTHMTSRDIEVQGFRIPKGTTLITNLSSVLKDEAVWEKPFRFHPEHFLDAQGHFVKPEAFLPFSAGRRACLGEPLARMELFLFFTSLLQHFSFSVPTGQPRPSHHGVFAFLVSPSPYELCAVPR
Exercise: state measured AC50 for each of the molecules provided.

Take a look at these entries with their results.
molecule	obs value
Cc1ccccc1OCCNc1ccc(C(F)(F)F)cc1[N+](=O)[O-]	5.01 µM (inconclusive)
CN(C)CC/C=C1\c2ccccc2CSc2ccccc21 [DOTHIEPIN]	7.94 µM (inconclusive)
CCCNC(=O)N1N=C(c2ccc(N)cc2)c2cc3c(cc2[C@H]1C)OCO3	25.1 µM (inconclusive)

Parameters: items (list). Returns: AC50 for each item.
1. Cc1ccc(/C=N/n2c(S)nnc2-c2cccs2)cc1
2. N=C(N)c1ccc(/N=N\c2c(O)ccc3c2[nH]c2ccccc23)cc1
3. CC(C)OC(=O)c1cc2c(OC[C@@H](O)CNC(C)(C)C)cccc2[nH]1
4. O=C(Nc1cccc(C(F)(F)F)c1)C1CCCN1S(=O)(=O)c1cccc2cccnc12 (configuration not stated)

5.01 µM (inconclusive)
5.01 µM (inconclusive)
15.8 µM (inconclusive)
31.6 µM (inconclusive)

---

study system: Fatty acid synthase (Homo sapiens)
Sequence (P49327 whole entry, the tested form may be a part): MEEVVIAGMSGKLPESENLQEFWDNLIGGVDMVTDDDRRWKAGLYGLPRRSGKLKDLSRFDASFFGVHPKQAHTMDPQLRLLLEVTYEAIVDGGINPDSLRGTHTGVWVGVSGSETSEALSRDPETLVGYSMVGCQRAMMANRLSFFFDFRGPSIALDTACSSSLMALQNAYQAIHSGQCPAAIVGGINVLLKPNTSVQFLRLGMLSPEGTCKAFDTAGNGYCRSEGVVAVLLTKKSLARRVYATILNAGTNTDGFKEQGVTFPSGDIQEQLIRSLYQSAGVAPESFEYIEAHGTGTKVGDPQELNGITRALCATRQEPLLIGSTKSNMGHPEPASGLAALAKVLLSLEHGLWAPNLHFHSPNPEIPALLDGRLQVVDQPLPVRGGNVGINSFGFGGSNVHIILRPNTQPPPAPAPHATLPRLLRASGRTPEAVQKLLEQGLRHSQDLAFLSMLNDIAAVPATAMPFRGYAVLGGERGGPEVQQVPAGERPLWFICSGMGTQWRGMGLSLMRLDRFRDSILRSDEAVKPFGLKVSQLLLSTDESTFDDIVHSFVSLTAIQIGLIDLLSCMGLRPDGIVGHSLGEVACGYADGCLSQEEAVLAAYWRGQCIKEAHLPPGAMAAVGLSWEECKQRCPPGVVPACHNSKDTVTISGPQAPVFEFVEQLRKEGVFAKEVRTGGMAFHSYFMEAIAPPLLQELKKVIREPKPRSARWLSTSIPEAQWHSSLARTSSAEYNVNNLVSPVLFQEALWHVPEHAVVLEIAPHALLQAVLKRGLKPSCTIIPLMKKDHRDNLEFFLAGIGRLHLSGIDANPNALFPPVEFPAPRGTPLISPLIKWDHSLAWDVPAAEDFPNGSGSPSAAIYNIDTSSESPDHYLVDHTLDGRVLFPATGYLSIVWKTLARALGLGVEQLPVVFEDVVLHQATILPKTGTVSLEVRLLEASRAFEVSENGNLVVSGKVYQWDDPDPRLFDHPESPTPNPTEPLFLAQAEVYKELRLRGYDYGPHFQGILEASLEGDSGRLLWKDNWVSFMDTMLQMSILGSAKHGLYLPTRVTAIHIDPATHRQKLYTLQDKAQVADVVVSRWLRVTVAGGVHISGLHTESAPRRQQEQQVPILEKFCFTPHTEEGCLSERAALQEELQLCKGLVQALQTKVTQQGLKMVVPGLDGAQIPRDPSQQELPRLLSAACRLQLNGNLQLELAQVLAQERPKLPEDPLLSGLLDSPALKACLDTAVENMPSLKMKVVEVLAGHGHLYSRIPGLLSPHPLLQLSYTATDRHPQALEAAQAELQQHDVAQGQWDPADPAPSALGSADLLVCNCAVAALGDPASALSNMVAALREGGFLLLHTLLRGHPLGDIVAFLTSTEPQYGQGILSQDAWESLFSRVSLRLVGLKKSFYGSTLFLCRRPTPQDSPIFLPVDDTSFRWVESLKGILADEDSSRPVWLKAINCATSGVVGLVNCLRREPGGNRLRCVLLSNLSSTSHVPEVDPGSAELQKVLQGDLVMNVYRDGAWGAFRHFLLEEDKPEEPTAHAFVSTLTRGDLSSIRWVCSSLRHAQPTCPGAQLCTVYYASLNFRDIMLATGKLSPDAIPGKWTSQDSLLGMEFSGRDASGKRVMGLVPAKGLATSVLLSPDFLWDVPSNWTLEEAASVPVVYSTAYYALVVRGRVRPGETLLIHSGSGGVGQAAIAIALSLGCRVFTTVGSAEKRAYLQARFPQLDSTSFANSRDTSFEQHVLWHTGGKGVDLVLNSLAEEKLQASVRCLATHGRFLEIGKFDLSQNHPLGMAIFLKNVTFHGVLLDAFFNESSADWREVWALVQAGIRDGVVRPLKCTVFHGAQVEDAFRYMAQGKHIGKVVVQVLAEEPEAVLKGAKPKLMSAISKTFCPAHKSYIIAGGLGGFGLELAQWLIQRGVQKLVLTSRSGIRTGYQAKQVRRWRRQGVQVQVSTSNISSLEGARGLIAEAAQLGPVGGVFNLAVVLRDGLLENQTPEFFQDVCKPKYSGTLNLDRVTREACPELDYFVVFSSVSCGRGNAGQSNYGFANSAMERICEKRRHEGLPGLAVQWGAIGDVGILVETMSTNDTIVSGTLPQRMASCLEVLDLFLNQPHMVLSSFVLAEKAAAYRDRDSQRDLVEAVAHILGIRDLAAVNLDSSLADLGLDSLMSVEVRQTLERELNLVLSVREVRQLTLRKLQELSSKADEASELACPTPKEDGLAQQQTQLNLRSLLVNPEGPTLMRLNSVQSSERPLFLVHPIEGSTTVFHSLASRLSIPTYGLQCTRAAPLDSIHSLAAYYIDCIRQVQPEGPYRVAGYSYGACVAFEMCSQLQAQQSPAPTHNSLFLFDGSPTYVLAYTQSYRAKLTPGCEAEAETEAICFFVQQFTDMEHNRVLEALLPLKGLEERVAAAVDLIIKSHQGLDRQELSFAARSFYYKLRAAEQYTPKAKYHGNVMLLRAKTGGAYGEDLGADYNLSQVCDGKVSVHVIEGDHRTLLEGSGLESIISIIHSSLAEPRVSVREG
measurement description: FAS thioesterase domain inhibitors, dose response, biochemical, kinetic fluorescence intensity (AID 624326);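 further: rate of fluorescence rise from hydrolysis of a fluorogenic O-methyl fluorescein ester substrate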
Assay type: functional
The source made the active and inactive calls.
recorded metric: IC50

chem smiles	IC50
O=C(CN1C(=O)S/C(=C\c2ccccc2)C1=O)Nc1cc([N+](=O)[O-])ccc1O	1.83 µM (active)
Cc1csc(NC(=O)CCNC(=O)c2ccc([N+](=O)[O-])cc2)n1	7.66 µM (active)
CN(C(=O)COC(=O)c1cc([N+](=O)[O-])ccc1N1CCOCC1)C1CCCCC1	0.41 µM (active)
CCOc1cc(/C=C(/C#N)c2ccc(Cl)cc2)cc(Cl)c1OCC(=O)O	10.4 µM (active)

As a next step, examine the compound that follows.
So what's the measured IC50 for this one? "COc1ccc([N+](=O)[O-])cc1C(=O)Nc1ccc(Cc2ccncc2)cc1"
11.5 µM (active)

---

Provide the reported IC50 of each item.
study system: Sentrin-specific protease 8 (Homo sapiens, UniProt Q96LD8);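 further: luminescence read-out of SENP8 inhibition, dose-response confirmation following an ultra-high-throughput screen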
Sequence (Q96LD8 whole entry): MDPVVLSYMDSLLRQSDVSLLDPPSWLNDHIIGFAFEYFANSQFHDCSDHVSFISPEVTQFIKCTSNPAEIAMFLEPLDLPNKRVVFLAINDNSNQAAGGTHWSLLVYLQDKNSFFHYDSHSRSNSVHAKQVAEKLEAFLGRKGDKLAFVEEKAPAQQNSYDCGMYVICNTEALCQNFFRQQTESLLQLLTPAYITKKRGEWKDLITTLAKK
Type: functional
Active and inactive are the calls of the source.

compound	study system	recorded metric	obs value
Cc1nc(N/N=C\c2ccc3c(c2)OCO3)sc1C	Sentrin-specific protease 8 (Homo sapiens, UniProt Q96LD8)	IC50	72.7 µM (active)
COc1ccc(O)c(-c2cc(-c3cccc(Br)c3)[nH]n2)c1	Sentrin-specific protease 8 (Homo sapiens, UniProt Q96LD8)	IC50	29.1 µM (active)
Cc1c(NC(=O)C(C)OC(=O)c2ccc([N+](=O)[O-])s2)c(=O)n(-c2ccccc2)n1C (stereo not given)	Sentrin-specific protease 8 (Homo sapiens, UniProt Q96LD8)	IC50	6.5 µM (active)
OC(c1ccc(OCc2ccccc2)cc1)c1nnc(-c2ccccc2)o1 (stereo not given)	Sentrin-specific protease 8 (Homo sapiens, UniProt Q96LD8)	IC50	75.6 µM (active)

Below: the item to evaluate.
Field: IC50 (Sentrin-specific protease 8 (Homo sapiens, UniProt Q96LD8)). Entry: "COc1ccc2oc3ccc(OC)cc3c(=O)c2c1"
69.1 µM (active)

---

study system: Histone-lysine N-methyltransferase NSD2 (Homo sapiens, UniProt O96028)
Sequence (O96028 whole entry): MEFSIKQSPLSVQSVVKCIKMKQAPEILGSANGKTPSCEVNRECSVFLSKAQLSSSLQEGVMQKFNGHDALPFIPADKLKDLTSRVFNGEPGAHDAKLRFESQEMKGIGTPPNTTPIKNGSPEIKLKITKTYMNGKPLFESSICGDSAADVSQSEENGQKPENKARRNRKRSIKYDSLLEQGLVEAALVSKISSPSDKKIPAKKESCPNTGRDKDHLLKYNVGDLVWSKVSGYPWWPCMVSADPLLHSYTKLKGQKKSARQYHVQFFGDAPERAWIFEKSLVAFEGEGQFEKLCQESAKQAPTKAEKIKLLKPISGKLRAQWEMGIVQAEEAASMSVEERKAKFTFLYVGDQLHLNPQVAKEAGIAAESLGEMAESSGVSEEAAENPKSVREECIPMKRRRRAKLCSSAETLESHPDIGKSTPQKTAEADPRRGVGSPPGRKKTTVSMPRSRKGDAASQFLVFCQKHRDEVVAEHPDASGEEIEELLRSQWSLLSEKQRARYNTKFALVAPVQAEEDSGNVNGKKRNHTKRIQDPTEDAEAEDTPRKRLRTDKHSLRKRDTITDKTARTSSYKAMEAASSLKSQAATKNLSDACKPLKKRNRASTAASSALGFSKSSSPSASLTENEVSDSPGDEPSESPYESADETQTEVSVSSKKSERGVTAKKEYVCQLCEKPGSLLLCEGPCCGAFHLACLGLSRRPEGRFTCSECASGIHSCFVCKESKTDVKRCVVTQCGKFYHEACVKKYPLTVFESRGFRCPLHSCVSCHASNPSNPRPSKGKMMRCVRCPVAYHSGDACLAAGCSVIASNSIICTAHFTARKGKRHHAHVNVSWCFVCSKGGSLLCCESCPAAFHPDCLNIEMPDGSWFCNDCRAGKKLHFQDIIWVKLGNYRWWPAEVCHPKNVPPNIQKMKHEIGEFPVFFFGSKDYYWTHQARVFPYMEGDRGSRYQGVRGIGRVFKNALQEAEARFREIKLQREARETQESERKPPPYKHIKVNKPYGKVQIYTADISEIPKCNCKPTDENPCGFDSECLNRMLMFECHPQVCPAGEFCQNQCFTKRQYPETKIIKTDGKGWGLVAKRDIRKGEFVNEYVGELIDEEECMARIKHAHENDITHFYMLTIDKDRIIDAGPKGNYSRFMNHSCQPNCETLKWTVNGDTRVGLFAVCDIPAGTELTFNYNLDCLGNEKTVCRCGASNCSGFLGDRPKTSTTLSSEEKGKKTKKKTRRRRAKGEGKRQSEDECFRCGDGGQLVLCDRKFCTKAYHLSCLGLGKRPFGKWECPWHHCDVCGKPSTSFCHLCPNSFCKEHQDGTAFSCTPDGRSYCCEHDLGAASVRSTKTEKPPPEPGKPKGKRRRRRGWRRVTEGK
Assay type: biochemical
Calls of active or inactive are those of the source.
Assignment: determine reported AC50 for the given compounds.

Example entries and their recorded answers appear below.
compound	AC50
Cc1cc(C=O)c(C)n1-c1cc(C(=O)O)cc(C(=O)O)c1	> 20 µM (inactive)
Cc1ccc(S(=O)(=O)NC2=NC(=O)/C(=C\c3cc(Br)cc(Br)c3O)S2)cc1	6.67 µM (active)
COc1cc(Br)c(C(=O)c2nccc3cc(OC)c(OC)cc23)cc1OC	0.416 µM (active)
Cc1cc(SCC(=O)c2ccc(O)c(O)c2)nc2ccccc12	6.7 µM (active)
CN(C)c1cc(N/N=C/c2ccc(Cl)cc2)nc(N(C)C)n1	6.18 µM (active)
COCCCn1c(N)c(C(=O)NCCC(C)C)c2nc3ccccc3nc21	15.9 µM (active)

Hello, I am looking for reported AC50 with Histone-lysine N-methyltransferase NSD2 (Homo sapiens, UniProt O96028) for Cc1c(NC(=O)C(C)OC(=O)c2ccc([N+](=O)[O-])s2)c(=O)n(-c2ccccc2)n1C (configuration not stated) . Could you help?
> 20 µM (inactive)
